Entries and their measured pIC50 follow.
tested on: HEL; experiment: The compound was tested for antiviral activity by measuring the concentration required to reduce plaque formation against Varicella zoster TK-(deficient) 07/1 strain; type: functional, cell-based; conditions: Homo sapiens
pIC50: −log10 of the molar value.

[
  {
    "chemical-string": "O=c1[nH]c(=O)n([C@H]2C[C@H](O)[C@@H](CO)O2)cc1/C=C/Br",
    "pIC50": "< 4.30"
  }
]

Can you look up the measured pIC50 of O=C1O/C(=C/Cn2cnc3ncnc(Cl)c32)C(OCc2ccccc2)=C1OCc1ccccc1 for me?
< 5.30

Same read-out for O=C1O/C(=C\Cn2cc(I)c(=O)[nH]c2=O)C(OCc2ccccc2)=C1OCc1ccccc1 ?
< 5.70

====

test system: MOLT-4; test: The compound was tested for growth inhibitory activity against Molt4/C8 tumor cell lines; format: functional, cell-based; details: Homo sapiens
readout-type: IC50 (µM)
Give a bare numeral; the unit µM is implied.

Record request: IC50 value, item O=C1O/C(=C\Cn2cc(F)c(=O)[nH]c2=O)C(OCc2ccccc2)=C1OCc1ccccc1
10.9

Same read-out for O=C1O/C(=C\Cn2cnc3c(Cl)ncnc32)C(OCc2ccccc2)=C1OCc1ccccc1 ?
14.8

Request: O=C1O/C(=C\Cn2cc(Cl)c(=O)[nH]c2=O)C(OCc2ccccc2)=C1OCc1ccccc1
6.1
